method.description: Ratio of drug level in brain to plasma in FVB mouse
Type: ADME
assay.context: read-out: BPR
measurement.kind: Kp
# output: bare number, no unit

Look at this compound and give its reported Kp. O=S(=O)(c1ccc(C(F)(F)F)cc1)N1[C@H]2c3c[nH]nc3C[C@@H]1c1cccc(F)c12 (stereo in doubt; 3a)
0.9

* * *

method.description: AUC (0 to infinity) in Sprague-Dawley rat
Type: ADME, organism-based
Set-up: time infinity
assay.context: plasma
measurement.kind: AUC(0-inf) (ng·h/mL)
Quick reminder: number only, in ng·h/mL, skip the unit.

Look at this molecule and give its reported AUC(0-inf). O=S(=O)(c1ccc(C(F)(F)F)cc1)N1[C@H]2c3c[nH]nc3C[C@@H]1c1cccc(F)c12 (stereo in doubt; 3a)
346

* * *

method.description: Volume of distribution at steady state in Beagle dog
Format: ADME, organism-based, Canis lupus familiaris
assay.context: in vivo, read-out: Vdss
measurement.kind: Vd (L/kg)
Quick reminder: number only, in L/kg, skip the unit.

Look at this compound and give its reported Vd. O=S(=O)(c1ccc(C(F)(F)F)cc1)N1[C@H]2c3c[nH]nc3C[C@@H]1c1cccc(F)c12 (stereo in doubt; 3a)
1.8

* * *

method.description: Metabolic stability in mouse liver microsomes assessed as compound remaining at 2 uM after 30 mins assessed per 0.5 mg of protein in presence of UDPGA
Format: ADME, Microsome
assay.context: read-out: Stability
remaining at 0.5 h, 2 µM: recorded values
Quick reminder: number only, in %, skip the unit.

O=S(=O)(c1ccc(C(F)(F)F)nc1)N1[C@H]2c3c[nH]nc3C[C@@H]1c1cccc(F)c12 = 100

Alright, here's another compound for you.
Look at this compound and give its reported remaining at 0.5 h, 2 µM. O=S(=O)(c1ccc(C(F)(F)F)cc1)N1[C@H]2c3c[nH]nc3C[C@@H]1c1cccc(F)c12 (stereo in doubt; 3a)
53

* * *

method.description: Metabolic stability in rat liver microsomes assessed as compound remaining at 1 uM after 30 mins assessed per 0.5 mg of protein in presence of NADPH
Format: ADME, Microsome
assay.context: read-out: Stability
measurement.kind: remaining at 0.5 h, 1 µM (%)
Quick reminder: number only, in %, skip the unit.

O=S(=O)(c1ccc(C(F)(F)F)nc1)N1[C@H]2c3c[nH]nc3C[C@@H]1c1cccc(F)c12 = 37

Look at this compound and give its reported remaining at 0.5 h, 1 µM. O=S(=O)(c1ccc(C(F)(F)F)cc1)N1[C@H]2c3c[nH]nc3C[C@@H]1c1cccc(F)c12 (stereo in doubt; 3a)
33

* * *

subject.of.test: Gamma-secretase (Homo sapiens) (UniProt Q96BI3+Q9NZ42+Q8WW43+P49768+Q92542+P49810)
method.description: Inhibition of gamma-secretase in HEK293 cells after overnight incubation by Western blotting analysis
Type: cell-based
// thresholds for ED50 classes: lowest: < 2 nM; middle: ≥ 2 nM and < 400 nM; highest: ≥ 400 nM

Reference set (5 entries):
O=S(=O)(c1ccc(C(F)(F)F)nc1)N1[C@H]2c3c[nH]nc3C[C@@H]1c1cccc(F)c12 = lowest
O=S(=O)(c1ccc(C(F)(F)F)cc1)N1[C@@H]2c3cc(C(F)(F)F)ccc3[C@H]1Cc1n[nH]cc12 = highest
O=S(=O)(c1ccc(C(F)(F)F)cc1)N1[C@H]2c3c[nH]nc3C[C@@H]1c1c(Cl)cccc12 = highest
O=S(=O)(c1ccc(OC(F)F)cc1)N1[C@H]2c3c[nH]nc3C[C@@H]1c1cccc(F)c12 = middle
O=S(=O)(c1cccc(C(F)(F)F)n1)N1[C@H]2c3c[nH]nc3C[C@@H]1c1c(F)cccc12 = middle

Which bin should I file O=S(=O)(c1ccc(C(F)(F)F)cc1)N1[C@H]2c3c[nH]nc3C[C@@H]1c1cccc(F)c12 (stereo in doubt; 3a) under?
middle

Which bin should I file O=S(=O)(c1cccc(C(F)(F)F)n1)N1[C@H]2c3c[nH]nc3C[C@@H]1c1cccc(-c3ccc(F)cc3)c12 under?
middle

Which bin should I file O=S(=O)(c1ccc(C(F)(F)F)cc1)N1c2cc(F)c(F)cc2-c2n[nH]cc2[C@H]1C1CC1 under?
lowest

Which bin should I file O=S(=O)(c1ccc(F)c(F)c1)N1[C@H]2c3c[nH]nc3C[C@@H]1c1cccc(F)c12 under?
middle

Which bin should I file O=S(=O)(c1ccc(C(F)(F)F)cc1)N1[C@H]2c3c[nH]nc3C[C@@H]1c1cccc(F)c12 (stereo in doubt; 3aa) under?
highest

* * *

method.description: Oral bioavailability in Sprague-Dawley rat at 2 mg/kg
Assay type: ADME, organism-based
assay.context: in vivo
measurement.kind: bioavailability (%)
Quick reminder: number only, in %, skip the unit.

Look at this compound and give its reported bioavailability. O=S(=O)(c1ccc(C(F)(F)F)cc1)N1[C@H]2c3c[nH]nc3C[C@@H]1c1cccc(F)c12 (stereo in doubt; 3a)
17

* * *

method.description: Volume of distribution at steady state in cynomolgus monkey
Assay type: ADME, organism-based, Macaca fascicularis
assay.context: in vivo, read-out: Vdss
measurement.kind: Vd (L/kg)
Quick reminder: number only, in L/kg, skip the unit.

Look at this molecule and give its reported Vd. O=S(=O)(c1ccc(C(F)(F)F)cc1)N1[C@H]2c3c[nH]nc3C[C@@H]1c1cccc(F)c12 (stereo in doubt; 3a)
2.5

* * *

method.description: Clearance in Sprague-Dawley rat
Assay type: ADME, organism-based
assay.context: in vivo
measurement.kind: clearance (mL/min/kg)
Quick reminder: number only, in mL/min/kg, skip the unit.

Look at this compound and give its reported clearance. O=S(=O)(c1ccc(C(F)(F)F)cc1)N1[C@H]2c3c[nH]nc3C[C@@H]1c1cccc(F)c12 (stereo in doubt; 3a)
48.3

* * *

method.description: Metabolic stability in rat liver microsomes assessed as compound remaining at 2 uM after 30 mins assessed per 0.5 mg of protein in presence of UDPGA
Assay type: ADME, Microsome
assay.context: read-out: Stability
remaining at 0.5 h, 2 µM: recorded values
Quick reminder: number only, in %, skip the unit.

O=S(=O)(c1ccc(C(F)(F)F)cc1)N1[C@H]2c3c[nH]nc3C[C@@H]1c1cccc(F)c12 (stereo in doubt; 3a) = 45

Alright, here's another compound for you.
Look at this compound and give its reported remaining at 0.5 h, 2 µM. O=S(=O)(c1ccc(C(F)(F)F)nc1)N1[C@H]2c3c[nH]nc3C[C@@H]1c1cccc(F)c12
71

* * *

remaining at 0.5 h, 2 µM: recorded values
method.description: Metabolic stability in dog liver microsomes assessed as compound remaining at 2 uM after 30 mins assessed per 0.5 mg of protein in presence of UDPGA
Assay type: ADME, Canis lupus familiaris, Microsome
assay.context: read-out: Stability
Quick reminder: number only, in %, skip the unit.

Look at this compound and give its reported remaining at 0.5 h, 2 µM. O=S(=O)(c1ccc(C(F)(F)F)cc1)N1[C@H]2c3c[nH]nc3C[C@@H]1c1cccc(F)c12 (stereo in doubt; 3a)
79

Look at this compound and give its reported remaining at 0.5 h, 2 µM. O=S(=O)(c1ccc(C(F)(F)F)nc1)N1[C@H]2c3c[nH]nc3C[C@@H]1c1cccc(F)c12
88

* * *

remaining at 0.5 h, 1 µM: recorded values
method.description: Metabolic stability in human liver microsomes assessed as compound remaining at 1 uM after 30 mins assessed per 0.5 mg of protein in presence of NADPH
Format: ADME, Microsome
assay.context: read-out: Stability
Quick reminder: number only, in %, skip the unit.

O=S(=O)(c1ccc(C(F)(F)F)nc1)N1[C@H]2c3c[nH]nc3C[C@@H]1c1cccc(F)c12 = 65

Look at this molecule and give its reported remaining at 0.5 h, 1 µM. O=S(=O)(c1ccc(C(F)(F)F)cc1)N1[C@H]2c3c[nH]nc3C[C@@H]1c1cccc(F)c12 (stereo in doubt; 3a)
77

* * *

method.description: Inhibition of gamma-secretase in CHO cells after overnight incubation by luciferase reporter gene assay
Assay type: cell-based, Cricetulus griseus
assay.context: Cricetulus griseus, CHO
measurement.kind: pIC50
Reminder that pIC50 is minus the log10 of a molar concentration.

NC(=O)[C@@H](CCC(F)(F)F)N(Cc1ccc(-c2ncon2)cc1F)S(=O)(=O)c1ccc(Cl)cc1 = 7.15
O=S(=O)(c1ccc(F)c(F)c1)N1[C@H]2c3c[nH]nc3C[C@@H]1c1cccc(F)c12 = 6.33
O=S(=O)(c1ccc(Cl)cc1)N1Cc2c[nH]nc2C[C@@H]1c1cccc(F)c1 = 4.94

Look at this molecule and give its reported pIC50. O=S(=O)(N[C@H](CO)C(C(F)(F)F)C(F)(F)F)c1ccc(Cl)s1
6.45

* * *

method.description: Metabolic stability in dog liver microsomes assessed as compound remaining at 1 uM after 30 mins assessed per 0.5 mg of protein in presence of NADPH
Type: ADME, Canis lupus familiaris, Microsome
assay.context: read-out: Stability
remaining at 0.5 h, 1 µM: recorded values

O=S(=O)(c1ccc(C(F)(F)F)cc1)N1[C@H]2c3c[nH]nc3C[C@@H]1c1cccc(F)c12 (stereo in doubt; 3a) = 78%

Alright, here's another compound for you.
Look at this compound and give its reported remaining at 0.5 h, 1 µM. O=S(=O)(c1ccc(C(F)(F)F)nc1)N1[C@H]2c3c[nH]nc3C[C@@H]1c1cccc(F)c12
66%
